Where these numbers come from: patent US10576062B2

target: human LPA1 (Homo sapiens); construct: expressed in transfected cells; host or cells: Chinese hamster ovary (CHO) cells; experiment: LPA1 functional antagonist assay (LPA-induced calcium flux); assay type: cell-based; conditions: CHO cells overexpressing human LPA1; inhibition of calcium flux induced by 10 nM LPA; read-out: hLPA1 IC50
Sequence (Q92633 whole entry): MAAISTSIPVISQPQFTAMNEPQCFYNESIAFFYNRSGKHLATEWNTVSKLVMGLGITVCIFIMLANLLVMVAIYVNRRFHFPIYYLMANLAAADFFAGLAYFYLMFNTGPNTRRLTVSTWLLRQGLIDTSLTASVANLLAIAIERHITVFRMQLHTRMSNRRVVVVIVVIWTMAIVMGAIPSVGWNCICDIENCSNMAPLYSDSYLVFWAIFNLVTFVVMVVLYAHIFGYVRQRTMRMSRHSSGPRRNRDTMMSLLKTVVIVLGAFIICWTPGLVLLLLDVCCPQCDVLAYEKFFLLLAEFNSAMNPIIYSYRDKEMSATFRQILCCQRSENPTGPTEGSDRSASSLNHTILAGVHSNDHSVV
pIC50: −log10 of the molar value.
pIC50 of 7 or higher: t. Under 7: f.

Before answering, review these 4 worked examples.
1) CCc1nc(-c2nnn(C)c2COC(=O)NC23CC(C2)C3)ccc1O[C@H]1CCC[C@H](C(=O)O)C1 [Example 205]: f
2) CN(CC1CC1)C(=O)OCc1c(-c2cnc(O[C@H]3CCC[C@H](C(=O)O)C3)cn2)nnn1C [Example 213]: f
3) Cc1nc(-c2nnn(C)c2COC(=O)N(C)C[C@H]2C[C@@H]2C)ccc1O[C@H]1CCCC(C(=O)O)C1 (stereo in doubt) [Example 258]: t
4) C[C@@H]1C[C@H]1CN(C)C(=O)OCc1c(-c2ccc(O[C@H]3CCC[C@H](C(=O)O)C3)cn2)nnn1C [Example 251]: t

Hello, I need to know if CCCCN(C)C(=O)OCc1c(-c2cnc(O[C@H]3CCC[C@H](C(=O)O)C3)cn2)nnn1C [Example 212] has measured pIC50 not below 7. Thanks! t
